Test system: MDA-MB-468
Test: normalised response (% of control), CellTiter-Glo; higher = more viable cells (100 = DMSO, 0 = benzethonium chloride kill control)
Settings: incubation time: 72 h

>  <compound>
C=CC(=O)N1CCC[C@@H](n2nc(-c3ccc(Oc4ccccc4)cc3)c3c(N)ncnc32)C1 [Ibrutinib] (10 nM)

>  <target.entity>
MDA-MB-468

>  <readout.unit>
%

>  <normalised response>
98.4

$$$$
>  <compound>
O=C(Cc1ccc(-c2ccc(OCCN3CCOCC3)cc2)cn1)NCc1ccccc1 [KX2-391] (100 nM)

>  <target.entity>
MDA-MB-468

>  <readout.unit>
%

>  <normalised response>
44.6

$$$$
>  <compound>
Nc1ncn([C@H]2C[C@H](O)[C@@H](CO)O2)c(=O)n1 [Decitabine] (100 nM)

>  <target.entity>
MDA-MB-468

>  <readout.unit>
%

>  <normalised response>
52.5

$$$$
>  <compound>
CCN(CC)CCCC(C)Nc1c2ccc(Cl)cc2nc2ccc(OC)cc12 (stereo unspecified) [Mepacrine] (500 nM)

>  <target.entity>
MDA-MB-468

>  <readout.unit>
%

>  <normalised response>
93.1

$$$$
>  <compound>
COc1cc2c(NC3CCN(C(C)C)CC3)nc(C3CCCCC3)nc2cc1OCCCN1CCCC1 [UNC0638] (100 nM)

>  <target.entity>
MDA-MB-468

>  <readout.unit>
%

>  <normalised response>
83.8

$$$$
>  <compound>
C=CCc1cccc(/C=N/NC(=O)CN2CCN(Cc3ccccc3)CC2)c1O [PAC-1] (100 nM)

>  <target.entity>
MDA-MB-468

>  <readout.unit>
%

>  <normalised response>
99.4

$$$$
>  <compound>
O=C(/C=C/c1cccnc1)NCCCCC1CCN(C(=O)c2ccccc2)CC1 [Daporinad] (10 nM)

>  <target.entity>
MDA-MB-468

>  <readout.unit>
%

>  <normalised response>
1.06

$$$$
>  <compound>
O=C(O)C1(C(=O)O)CCC1.[NH2-].[NH2-].[Pt+2] [Carboplatin] (100 nM)

>  <target.entity>
MDA-MB-468

>  <readout.unit>
%

>  <normalised response>
93.9

$$$$
>  <compound>
Cc1ccc(-c2cc(C(F)(F)F)nn2-c2ccc(S(N)(=O)=O)cc2)cc1 [Celecoxib] (100 nM)

>  <target.entity>
MDA-MB-468

>  <readout.unit>
%

>  <normalised response>
98.9

$$$$
>  <compound>
COc1cc2c(Oc3ccc4[nH]c(C)cc4c3F)ncnc2cc1OCCCN1CCCC1 [Cediranib] (10 nM)

>  <target.entity>
MDA-MB-468

>  <readout.unit>
%

>  <normalised response>
104

$$$$
>  <compound>
Nc1nc(F)nc2c1ncn2[C@@H]1O[C@H](CO)[C@@H](O)[C@@H]1O [Fludarabine] (100 nM)

>  <target.entity>
MDA-MB-468

>  <readout.unit>
%

>  <normalised response>
113

$$$$
